// values below are reported composite z-score
- experiment_notes: small-molecule microarray binders of probe aShh, primary screen, biochemical, biotinylated probe, 635/667 nm fluorescence (AID 1114);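 also: probe is biotin-labelled aShh protein from a stem cell growth factor screen; measures binding of labelled protein to compounds printed on the slide; score merges feature fluorescence at 667 nm with signal-to-noise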
- condition_parameters: higher = more signal
Lab note: record just the number, no unit beside it.

See these solved cases before continuing.
compound	composite z-score
C=C(CCCC)C(=O)CC[C@H](OC(C)=O)c1ccc(OCCO)cc1	-0.262
C=CCNC(=O)[C@@H]1[C@H]2C(=O)O[C@H](c3ccccc3)[C@H](c3ccccc3)N2[C@H](c2ccc(O)cc2)[C@@]12C(=O)Nc1ccc(C#CCC(C(=O)OC)C(=O)OC)cc12	-0.2
CC1(C)C(=O)C(c2ccccc2)=C2CN3C(=O)N(CCc4ccccc4)C(=O)C3(Cc3ccc(F)cc3)C=C21 (stereo not given)	0.717
COc1cc(NN2C(C(O)C3CCCCC3)C=CC3C(=O)N(C)C(=O)C32)cc(OC)c1OC (stereo not given)	0.417
COCCOC(=O)N1C(=O)[C@@]2(c3cc(C#CCC(C(=O)OC)C(=O)OC)ccc31)[C@H](c1ccc(O)cc1)N1[C@H](c3ccccc3)[C@H](c3ccccc3)OC(=O)[C@H]1[C@@H]2C(=O)NC[C@H](O)c1ccccc1	-0.147
COc1cc2c(cc1OC)CN(C(=O)[C@@H]1[C@H]3C(=O)O[C@H](c4ccccc4)[C@H](c4ccccc4)N3[C@H](c3ccc(O)cc3)[C@@]13C(=O)Nc1ccc(C#CCCO)cc13)CC2	-0.11

Prompt: Sample C=CCN1C(=O)[C@@]2(O[C@@H](CCO)[C@H]([Si](C)(C)c3ccc(OC)cc3)[C@H]2C)c2cc(N3CCOC3=O)ccc21 — what was its composite z-score?
Completion: -0.243

Prompt: Now give it for COCCOC(=O)N1C(=O)[C@@]2(c3cc(C#CCC(C(=O)OC)C(=O)OC)ccc31)[C@H](C(=O)NC[C@H](O)c1ccccc1)[C@H]1C(=O)O[C@H](c3ccccc3)[C@H](c3ccccc3)N1[C@@H]2c1ccc(OCCO)cc1 too.
Completion: 0.0141

Prompt: Now give it for COCCOC(=O)N1C(=O)[C@@]2(c3cc(C#CCC(C(=O)OC)C(=O)OC)ccc31)[C@H](C(=O)NC[C@H](O)c1ccccc1)[C@H]1C(=O)O[C@H](c3ccccc3)[C@H](c3ccccc3)N1[C@@H]2c1ccc(O)cc1 too.
Completion: -0.0146

Prompt: Now give it for COCCOC(=O)N1C(=O)[C@@]2(c3ccccc31)[C@H](c1ccccc1OCCO)N1[C@H](c3ccccc3)[C@H](c3ccccc3)OC(=O)[C@H]1[C@@H]2C(=O)N1CCCCCCC1 too.
Completion: 3.37

Prompt: Now give it for CC(C)C(=C=CC[C@H](O)c1cccc(OCCO)c1)CCO too.
Completion: 0.201

Prompt: Now give it for CC(=O)NCCCC[C@@H]1NC(=O)[C@H]2C[C@@H](C(=O)NCCCCCNC(=O)CS)[C@@H](c3cccc(OCCO)c3)N2C1=O too.
Completion: -0.147

Prompt: Now give it for CC(C)C(=C=CC[C@@H](O)c1cccc(OCCO)c1)C[C@@H](O)c1ccccn1 too.
Completion: -0.154

Prompt: Now give it for CC(C)N1CC=CC23O[C@@H]4/C=C\CCCOC(=O)C4[C@H]2C(=O)N(CCCCCCO)[C@@H]3C1=O (stereo not given in full) too.
Completion: -0.346

Prompt: Now give it for COc1ccc(C#Cc2ccc3c(c2)[C@]2(C(=O)N3)[C@H](c3ccc(OCCO)cc3)N3[C@H](c4ccccc4)[C@H](c4ccccc4)OC(=O)[C@H]3[C@@H]2C(=O)N2CCc3cc(OC)c(OC)cc3C2)cc1 too.
Completion: 0.0589

Prompt: Now give it for COCC1=C2[C@@H](CCc3ccccc3)OB(O)C[C@@H]2[C@@H]2C(=O)N(C)C(=O)[C@@H]2C1 too.
Completion: -0.138

Prompt: Now give it for COCCOC(=O)N1C(=O)[C@@]2(c3cc(C#CCC(C(=O)OC)C(=O)OC)ccc31)[C@H](c1ccc(OCCO)cc1)N1[C@H](c3ccccc3)[C@H](c3ccccc3)OC(=O)[C@H]1[C@@H]2C(=O)Nc1nc2ccccc2s1 too.
Completion: -0.0793

Prompt: Now give it for COCCOC(=O)N1C(=O)[C@@]2(c3cc(C#CC4(O)CCCCCC4)ccc31)[C@H](C(=O)N1CCN(c3ncccn3)CC1)[C@H]1C(=O)O[C@H](c3ccccc3)[C@H](c3ccccc3)N1[C@@H]2c1ccccc1OCCO too.
Completion: 0.116

Prompt: Now give it for COCCOC(=O)N1C(=O)[C@@]2(c3cc(C#CCNC(N)=O)ccc31)[C@H](c1ccc(OCCO)cc1)N1[C@H](c3ccccc3)[C@H](c3ccccc3)OC(=O)[C@H]1[C@@H]2C(N)=O too.
Completion: 0.225

Prompt: Now give it for C=CCNC(=O)[C@H]1[C@@H]2C(=O)O[C@@H](c3ccccc3)[C@@H](c3ccccc3)N2[C@@H](c2ccc(OCCO)cc2)[C@]12C(=O)N(C(=O)OCCOC)c1ccc(C#Cc3ccc(OC)cc3)cc12 too.
Completion: 0.0976

Prompt: Now give it for COC(=O)[C@@]1(Cc2ccc(OC)cc2)[C@H]2c3cc(C(=O)N4CCCC4)n(Cc4cc(C)n(C)n4)c3C[C@H]2CN1C(=O)c1ccccc1 too.
Completion: 0.4

Prompt: Now give it for Cc1ccc(N2C(=O)c3ccccc3[C@](C)(C(=O)NCc3ccccc3)[C@@H]2c2ccc(CO)cc2)nc1 too.
Completion: -0.0837

Prompt: Now give it for Cc1nc2cc(Br)ccc2c(=O)n1Cc1cccc(O)c1 too.
Completion: -0.0946

Prompt: Now give it for COc1cccc(/C=C(\C#N)C(=O)Nc2c(C)n(C)n(-c3ccccc3)c2=O)c1 too.
Completion: -0.223

Prompt: Now give it for Cc1c(NC(=O)/C(C#N)=C/c2ccccc2Cl)c(=O)n(-c2ccccc2)n1C too.
Completion: -0.588

* * *

- experiment_notes: basal RPMI8226 mitochondrial membrane potential changes, profiling panel, cell-based, JC-1 fluorescence, 24 h, 100 nL compound (AID 1169); also: test concentration not given here
- condition_parameters: RPMI8226 myeloma, JC-1 mitochondrial potential fluorescence, higher = more signal
// values below are reported z-score
Lab note: record just the number, no unit beside it.

item_smiles	observed_result
COCCOC(=O)N1C(=O)[C@@]2(c3cc(C#CCC(C(=O)OC)C(=O)OC)ccc31)[C@H](c1ccc(O)cc1)N1[C@H](c3ccccc3)[C@H](c3ccccc3)OC(=O)[C@H]1[C@@H]2C(=O)NC[C@H](O)c1ccccc1	-1.08
COC(=O)[C@@]1(Cc2ccccc2)[C@H]2c3cc(C(=O)N4CCCC4)n(CCSCCO)c3C[C@H]2CN1C(=O)c1ccccc1	0.26
COCCOC(=O)N1C(=O)[C@@]2(c3cc(C#Cc4ccc(OC)cc4)ccc31)[C@H](C(=O)NC[C@H](O)c1ccccc1)[C@H]1C(=O)O[C@H](c3ccccc3)[C@H](c3ccccc3)N1[C@@H]2c1ccc(OCCO)cc1	-0.66

Prompt: Sample CCOC(=O)C=Cc1ccccc1O — what was its z-score?
Completion: -0.986

Prompt: Now give it for CC(C)(C)OC(=O)CC[C@]1(C(=O)N2CCCCC2)COC(c2ccc(OCCCO)cc2)=N1 too.
Completion: -0.492

Prompt: Now give it for COC(=O)C(CC#Cc1ccc2c(c1)[C@]1(C(=O)N2)[C@H](C(=O)Nc2nc3ccccc3s2)[C@H]2C(=O)O[C@H](c3ccccc3)[C@H](c3ccccc3)N2[C@@H]1c1ccc(OCCO)cc1)C(=O)OC too.
Completion: -1

* * *

- system_name: Carbonic anhydrase 2 (Homo sapiens) (UniProt P00918)
- experiment_notes: CAII small-molecule binders, profiling panel, biochemical, small-molecule microarray, Alexa647-labelled CAII (AID 1122)
- condition_parameters: CAII-A647 binding fluorescence, higher = more signal
property_label: composite z-score
Lab note: record just the number, no unit beside it.

See these solved cases before continuing.
compound	composite z-score
CCOC(=O)C1=CCN(S(=O)(=O)c2ccc(C)cc2)C1c1ccccc1 (centres undefined)	0.685
C=CCC(OC(C)=O)[C@@H]1[C@@H](N(Cc2ccc(-c3ccccc3)cc2)C(=O)c2ccc(C)cc2)c2cc(OCCCO)ccc2N1C(=O)Cc1ccc2ccccc2c1 (some centres undefined)	-0.14
COCCCNC(=O)[C@@]1(Sc2ccc(C)cc2)CC(=O)N(Cc2ccccc2Cl)[C@@H]1c1ccc(CO)cc1I	0.809

Okay, next one:
Prompt: Sample CN1C(=O)[C@@H]2[C@@H](CC(COc3ccccc3)=C([C@H](O)CCc3ccccc3)[C@@H]2CO)C1=O — what was its composite z-score?
Completion: 0.0456

* * *

- Tested on: Sonic hedgehog protein (Shh)
- experiment_notes: small-molecule binders of Shh protein, primary screen, biochemical, small-molecule microarray, 635/667 nm fluorescence (AID 1151);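 also: Shh protein binding to compounds spotted on small-molecule microarray slides; score combines spot fluorescence intensity with signal-to-noise across triplicate slides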
- condition_parameters: small-molecule microarray binding, 635 nm fluorescence; higher = more signal
// values below are reported composite z-score
Lab note: record just the number, no unit beside it.

See these solved cases before continuing.
> print(dat)
                                item.smiles  observed.result
1  COc1ccc([Si](C)(C)[C@H]2[C@H](CC(=O)N3CCC[C@H]3CO)O[C@@]3(C(=O)N(Cc4ccc(N5CCC5=O)cc4)c4ccccc43)[C@@H]2C)cc1             1.77
2  COC(=O)c1c2oc(c1C(=O)OC)C(=O)N1CCC[C@H]1Cn1nncc1CN(Cc1ccccc1)C(=O)N[C@H](CO)CC2            0.658
3  COCCCNC(=O)[C@@H]1c2ccccc2C(=O)N(C2Cc3ccccc3C2)[C@H]1c1ccc(CO)cc1            0.457
4  CCOC(=O)C[C@H]1[C@H](OC(=O)c2ccc(C(=O)c3ccccc3)cc2)[C@@H](NC(=O)CC(C)C)c2cc(OCCCO)ccc2N1C(=O)Cc1ccc(OC)cc1          -0.0145
5  O=C(O)[C@@H]1C[C@@H]2C(=O)N3CCC[C@H]3C(=O)N2[C@@H]1c1cccc(OCCO)c1             2.02

Prompt: Sample COCCCNC(=O)[C@@]1(Sc2ccc(C)cc2)CC(=O)N(C(C)C)[C@@H]1c1ccc(CO)cc1I — what was its composite z-score?
Completion: -0.005

Prompt: Now give it for C=C(COC)C(=O)CC[C@@H](OC(=O)c1cccnc1)c1ccccc1OCCO too.
Completion: 0.786

Prompt: Now give it for C[C@]1(C(=O)NCC(F)(F)F)c2ccccc2C(=O)N(Cc2ccccc2)[C@H]1c1ccc(CO)cc1 too.
Completion: -1.32
